target: Neu5Ac(a2-3)Gal(b1-3)GlcNAc(b1-2)Man; assay: glycan array binding signal (z-score within array); higher = stronger binding; details: glycan notation: IUPAC condensed, linker removed
Shown is part of a subset that was picked to be rich in the strongest signals.
Parameter: glycan array binding signal (z-score)

input: Given HA-00510 (Pseudomonas aeruginosa), Q02V39_PSEAB (protein) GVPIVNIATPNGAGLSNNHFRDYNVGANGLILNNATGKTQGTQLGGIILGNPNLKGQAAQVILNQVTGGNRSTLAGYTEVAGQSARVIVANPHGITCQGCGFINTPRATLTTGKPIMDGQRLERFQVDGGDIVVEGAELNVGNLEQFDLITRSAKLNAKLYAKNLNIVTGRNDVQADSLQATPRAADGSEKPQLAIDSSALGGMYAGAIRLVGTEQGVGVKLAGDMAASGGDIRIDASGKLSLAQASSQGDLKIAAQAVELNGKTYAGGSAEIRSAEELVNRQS , respond with its glycan array binding signal (z-score).
output: -0.852

Sourced from the supplement of paper PMC8728848
